- System: A549
- RUN DESCRIPTION: A549 toxicity
- Type: cell-based
- CONDITIONS: Tables 1-3
Reported A549 by item:

# MOLECULE, REPORTED METRIC, RESULT
data = [
    ("O=C(N/N=C/c1ccc(Br)cc1O)c1cc(Br)cc(Br)c1O [drawing 79]", "A549", "32 µg/mL"),
]

Continue with the molecule presented below.
Query: Suppose we examine the molecule O=C(N/N=C/c1ccc(Br)cc1O)c1cc(Br)ccc1Br ; what A549 value has been reported?
Response: 32 µg/mL

---

- System: HepG2
- RUN DESCRIPTION: HepG2 toxicity
- Type: cell-based
- CONDITIONS: Tables 1-3
REPORTED METRIC: HepG2 (µg/mL)
Report the value in µg/mL with no unit label.

// solved cases for HepG2 follow
# COMPOUND, UNITS LABEL, RESULT
measured = [
    ("Cc1ccc(O)c(/C=N/NC(=O)c2ccc(Br)cc2Br)c1", "µg/mL", 16),
    ("Cc1ccc(O)c(/C=N/NC(=O)c2cc(Br)cc(Br)c2O)c1 [drawing 66]", "µg/mL", 8),
    ("O=C(N/N=C/c1ccc(Br)cc1O)c1ccc(Br)cc1", "µg/mL", 32),
]

Query: Entry O=C(N/N=C/c1cc(Cl)ccc1O)c1ccc(Br)cc1Br has what HepG2?
Response: 64

Query: Please report the recorded HepG2 for O=C(N/N=C/c1ccc(Br)cc1O)c1cccc(Br)c1 .
Response: 9

Query: Entry under review: O=C(N/N=C/c1c(O)ccc2ccccc12)c1cc(Br)ccc1Br . Reported HepG2?
Response: 16

Query: Form field: reported HepG2 of O=C(N/N=C/c1cc(Cl)cc(Cl)c1O)c1cc(Br)ccc1Br
Response: 32

Query: May I ask what HepG2 has been recorded for O=C(N/N=C/c1cc(Cl)ccc1O)c1cccc(F)c1F ?
Response: 32

Query: Request the reported HepG2 associated with O=C(N/N=C/c1ccc(Br)cc1O)c1cc(Br)cc(Br)c1O [drawing 79]
Response: 32

Query: Request the reported HepG2 associated with O=C(N/N=C/c1cc(Br)cc(Br)c1O)c1cnc2ccccc2c1 [drawing 62]
Response: 32

---

Reported HepG2 values follow for various compounds
- System: HepG2
- RUN DESCRIPTION: HepG2 toxicity
- Assay type: cell-based
- CONDITIONS: Tables 1-3
Field format: number, assumed µg/mL, no unit text.

# SMILES DATA, HepG2, µg/mL
data = [
    ("Cc1ccc(O)c(/C=N/NC(=O)c2cc(Br)ccc2O)c1", 16),
    ("O=C(N/N=C/c1cc(Cl)ccc1O)c1cc(Br)ccc1Br", 32),
    ("O=C(N/N=C/c1ccc(Br)cc1O)c1cccc(F)c1F", 16),
]

Query: Which HepG2 is reported for this compound? O=C(N/N=C/c1ccc(Br)cc1O)c1cc(Br)ccc1Br
Response: 16

Query: If you can, please state the reported HepG2 value of O=C(N/N=C/c1cc(Br)ccc1O)c1cc(Br)ccc1Br .
Response: 32

---

- System: A549
- RUN DESCRIPTION: A549 toxicity
- Assay type: cell-based
- CONDITIONS: Example 2 table
Recorded A549 by entry
In your answer, state the number alone without any accompanying words.

Worked examples, 2 molecules total:
# MOLECULE, A549
records = [
    ("O=C(N/N=C/c1cc(Br)ccc1O)c1cccc(Br)c1 [Compound 2]", 64),
    ("Cc1ccccc1C(=O)N/N=C/c1cc(Br)ccc1O [Compound 1]", 32),
]

Query: Entry O=C(N/N=C/c1cc(Br)ccc1O)c1cc(Br)cc(Br)c1O [Compound 17] : reported A549 = ?
Response: 16
